- Test Protocol: inhibitors of poly I:C-induced TLR3 signaling, primary screen, cell-based, poly I:C stimulus, luciferase, 10K MLSCN set (AID 602277)
- Test Parameters: HEK293-TLR3 RL24 IRF3 luciferase reporter, at 10 µM, stronger effect = higher value
Output condition met for inhibition not less than 20%; output condition not met otherwise.

- Compound: "O=C(O)CCNC(=O)c1ccccc1"
  Assigned Category: "condition not met"
- Compound: "CN1C(C(=O)Nc2ccccn2)=C(O)c2ccccc2S1(=O)=O"
  Assigned Category: "condition not met"
- Compound: "Cc1nc(SC2C=CS(=O)(=O)C2)n[nH]1 (stereo not given)"
  Assigned Category: "condition not met"
- Compound: "Nc1nnc(-c2cccc(Cl)c2Cl)c(N)n1"
  Assigned Category: "condition not met"
- Compound: "CN(C)C(CN1C(=O)C2CC=CCC2C1=O)c1cn(C)c2ccccc12 (stereo not given)"
  Assigned Category: "condition met"
- Compound: "CCOc1nc(SCCOc2ccccc2)nc(N(C)C)n1"
  Assigned Category: "condition not met"
- Compound: "CC1(C)CNC(=O)c2sc(N3CCOCC3)nc2C1"
  Assigned Category: "condition not met"
- Compound: "c1ccc2c(c1)[nH]c1c(N3CCC4(CC3)OCCO4)ncnc12"
  Assigned Category: "condition not met"
- Compound: "COC(=O)C(NC(C)=O)(Nc1nc2ccc(S(C)(=O)=O)cc2s1)C(F)(F)F (stereo not given)"
  Assigned Category: "condition not met"
- Compound: "CCN1CCN(c2cc3c(cc2F)c(=O)c(C(=O)O)cn3C2CC2)CC1"
  Assigned Category: "condition met"
- Compound: "CCOC(=O)c1[nH]c2ccc(Br)cc2c1NC(=O)CNC"
  Assigned Category: "condition met"
- Compound: "CN(C)[C@@H]1C(=O)C(C(N)=O)=C(O)[C@@]2(O)C(=O)C3=C(O)c4c(O)ccc(Cl)c4[C@@H](O)[C@H]3C[C@@H]12"
  Assigned Category: "condition met"
- Compound: "CC(NC(=O)Nc1nccs1)(C(F)(F)F)C(F)(F)F"
  Assigned Category: "condition met"
- Compound: "COc1ccc(/C=C/C(=O)Nc2ccccc2C(=O)O)cc1OC"
  Assigned Category: "condition met"

====

- Test Protocol: DUSP6 inhibitors restoring Erk phosphorylation by chemical complementation, primary imaging in DUSP6-transfected HeLa (AID 609)
- Test Parameters: HeLa MKP-3 transfected, phospho-Erk imaging KS statistic; measured here: cell density z-score; at 10 µM; cells stimulated with TPA for 15 min
Entries get a class label from measured z-score. See ranges: lower: < -0.2; middle: ≥ -0.2 and < 0.8; upper: ≥ 0.8

- Compound: "CC(=O)OCC[N+](C)(C)C"
  Assigned Category: "lower"
- Compound: "CCOC(=O)CCc1c(C)c(C#N)c2nc3ccccc3n2c1-n1ccnc1"
  Assigned Category: "upper"
- Compound: "CCc1cc(=O)oc2c(CN3CCCC3)c(O)c(Cl)cc12"
  Assigned Category: "upper"
- Compound: "CCOC(=O)c1cc2c(=O)n3ccccc3nc2n(Cc2ccccc2Cl)c1=N"
  Assigned Category: "lower"
- Compound: "COc1ccc(C2=Nn3c(nnc3-c3ccccc3)SC2)cc1OC"
  Assigned Category: "lower"
- Compound: "CC(=O)C1(C)OC(N)=C(C#N)C(c2ccccc2)C1(C#N)C#N (stereo unspecified)"
  Assigned Category: "upper"
- Compound: "COCCCC/C(=N\\OCCN)c1ccc(C(F)(F)F)cc1"
  Assigned Category: "upper"
- Compound: "CCN(CC)CCCN1C(=O)C(O)=C(C(=O)c2ccc(C)o2)C1c1ccc(C)o1 (stereo unspecified)"
  Assigned Category: "middle"
- Compound: "CC(C)(C)C1=Nn2c(nnc2-c2ccccn2)SC1"
  Assigned Category: "upper"
- Compound: "CCOC(=O)C1CCN(C(C)=C2C(=O)c3ccccc3C2=O)CC1"
  Assigned Category: "middle"
- Compound: "C=C(c1ccc(OCCO)cc1)c1ccc(OCCO)cc1"
  Assigned Category: "middle"
- Compound: "COc1cc(/C=C/C(=O)CC(=O)/C=C/c2ccc(O)c(OC)c2)ccc1O"
  Assigned Category: "middle"
- Compound: "Cc1cc(C)n(C(=O)CN2C(=O)CCC2=O)n1"
  Assigned Category: "lower"
- Compound: "CC1CN(c2oc(-c3cccs3)nc2C#N)CC(C)O1 (stereo unspecified)"
  Assigned Category: "lower"
- Compound: "COc1ccccc1Nc1ncnc2c1cnn2-c1cccc(C)c1"
  Assigned Category: "middle"
- Compound: "CCCC(=O)O[C@]1(C(=O)CCl)[C@@H](C)C[C@H]2[C@@H]3CCC4=CC(=O)C=C[C@]4(C)[C@@]3(F)C(=O)C[C@@]21C"
  Assigned Category: "middle"
- Compound: "COc1ccccc1Cn1c2nc3ccccc3nc2c2c(=O)n(CC(C)C)cnc21"
  Assigned Category: "middle"
- Compound: "Cc1ccc(C(=O)CSC2=C(C#N)C(c3ccco3)C3=C(CCCC3=O)N2)cc1 (stereo unspecified)"
  Assigned Category: "upper"
- Compound: "c1ccc(C2=Nn3c(nnc3-c3ccccn3)SC2)cc1"
  Assigned Category: "lower"
- Compound: "N#CC12CCCCC1CC1CCCCC1(C#N)N2Cc1cccnc1 (stereo unspecified)"
  Assigned Category: "upper"
- Compound: "CN1C(=O)c2ccc(N(C)C)cc2C1=O"
  Assigned Category: "middle"
